biological target: alpha-synuclein (Homo sapiens, UniProt P37840); test: SPR
pKd: −log10 of the molar value.
Classification field: 1.0 = pKd at or over 4; 0.0 = pKd under 4.

INSERT INTO assay_data (binder, label_class) VALUES
  ('EQALMPWIWYWKDPNGS (preformed fibrils) [EQALMPWIWYWKDPNGS peptide]', 1.0),
  ('ELAQMPYYYWKDPNGS (preformed fibrils) [ELAQMPYYYWKDPNGS peptide]', 0.0),
  ('PYYYWKELAQM (preformed fibrils) [PYYYWKELAQM peptide]', 1.0),
  ('ELAQMGPEGMGLEDPNGS (preformed fibrils) [ELAQMGPEGMGLEDPNGS peptide]', 0.0),
  ('PYYYWKDPNGS (preformed fibrils) [PYYYWKDPNGS peptide]', 1.0);
